In this section we review reported IC50 values for a set of compounds.
- assay_system: IDH2 R140Q (Homo sapiens (Human), UniProt P48735, R140Q)
- Sequence (P48735 40-452 R140Q): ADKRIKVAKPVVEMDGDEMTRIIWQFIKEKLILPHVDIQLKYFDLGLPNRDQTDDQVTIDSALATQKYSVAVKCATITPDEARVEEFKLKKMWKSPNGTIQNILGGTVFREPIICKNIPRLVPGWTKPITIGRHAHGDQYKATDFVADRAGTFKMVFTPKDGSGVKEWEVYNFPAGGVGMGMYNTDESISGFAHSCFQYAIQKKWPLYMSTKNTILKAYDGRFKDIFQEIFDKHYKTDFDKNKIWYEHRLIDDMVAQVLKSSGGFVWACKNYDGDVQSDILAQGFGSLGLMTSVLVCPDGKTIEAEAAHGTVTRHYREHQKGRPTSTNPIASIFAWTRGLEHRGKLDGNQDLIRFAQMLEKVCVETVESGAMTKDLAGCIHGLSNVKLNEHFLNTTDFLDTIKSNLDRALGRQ
- assay_remarks: IDH2 R140Q enzymatic cofactor depletion assay (diaphorase/resazurin)
- test_parameters: IDH2 R140Q enzyme, one hour preincubation with compound, one hour reaction; read-out: Enz R140Q

Consider the worked cases shown below.
O=C(Nc1cc(S(=O)(=O)NCC(F)(F)F)ccc1-c1ccccc1)NC1CCCC(C(F)(F)F)C1 (stereo not shown) [Compound 72]	100 to 1000 nM
O=C(Nc1nc(C(F)(F)F)cs1)Nc1cc(S(=O)(=O)NCC(F)(F)F)ccc1-c1ccccc1 [Compound 103]	100 to 1000 nM
CCOc1ccc(S(=O)(=O)NCC(F)(F)F)cc1NC(=O)Nc1cccc(C(F)(F)F)c1 [Compound 177]	< 100 nM
O=C(Nc1cc(F)ccc1F)Nc1cc(S(=O)(=O)NCC(F)(F)F)ccc1-c1ccccc1 [Compound 38]	100 to 1000 nM
C[S+]([O-])c1cccc(NC(=O)Nc2cc(S(=O)(=O)NCC(F)(F)F)ccc2-c2ccccc2)c1 (stereo not shown) [Compound 83]	100 to 1000 nM
O=C(Nc1cccc(C(F)(F)F)c1)Nc1cc(S(=O)(=O)N2CCOCC2)ccc1N1CCOCC1 [Compound 350]	1000 to 10000 nM

Now for a further compound.
I am curious: what IC50 value has been reported for O=C(Nc1cccc(C(F)(F)F)c1)Nc1cc(S(=O)(=O)NCc2ccccc2)ccc1-c1ccsc1 [Compound 136] ?
100 to 1000 nM

###

- assay_system: IDH2 R140Q (Homo sapiens (Human), UniProt P48735, R140Q)
- assay_remarks: IDH2 R140Q enzymatic cofactor depletion assay (diaphorase/resazurin)
- test_parameters: IDH2 R140Q enzyme, one hour preincubation with compound, one hour reaction; read-out: Enz R140Q
pIC50: −log10 of the molar value.
In this section we review reported pIC50 values for a set of molecules.

Consider the worked cases shown below.
Cc1nc(NC(=O)Nc2cc(S(=O)(=O)NCC(F)(F)F)ccc2-c2ccccc2)sc1Cl	6.00 to 7.00
O=C(Nc1ccccc1F)Nc1cc(S(=O)(=O)NCC(F)(F)F)ccc1-c1ccccc1	6.00 to 7.00
O=C(Nc1ccc(F)cc1F)Nc1cc(S(=O)(=O)NCC(F)(F)F)ccc1OCC1CC1	6.00 to 7.00
CC(C)n1ccc(NC(=O)Nc2cc(S(=O)(=O)NCC(F)(F)F)ccc2-c2ccccc2)n1	6.00 to 7.00

I am curious: what pIC50 value has been reported for "O=C(Nc1cccc(C(F)(F)F)c1)Nc1cc(S(=O)(=O)Nc2ccccc2)ccc1-c1ccccc1F" ?
5.00 to 6.00

I am curious: what pIC50 value has been reported for "Cc1cccc(NC(=O)Nc2cc(S(=O)(=O)Nc3ccccc3)ccc2-c2ccsc2)c1" ?
6.00 to 7.00

I am curious: what pIC50 value has been reported for "O=C(Nc1cc(C(F)(F)F)ccn1)Nc1cc(S(=O)(=O)NCC(F)(F)F)ccc1-c1cccnc1" ?
5.00 to 6.00

I am curious: what pIC50 value has been reported for "CN(C)S(=O)(=O)c1ccc(-c2ccsc2)c(NC(=O)Nc2cccc(C(F)(F)F)c2)c1" ?
5.00 to 6.00

###

In this section we review reported IC50 values for a set of molecules.
- assay_system: IDH2 R140Q (Homo sapiens (Human), UniProt P48735, R140Q)
- assay_remarks: IDH2 R140Q enzymatic cofactor depletion assay (diaphorase/resazurin)
- Assay type: biochemical
- test_parameters: IDH2 R140Q enzyme, one hour preincubation with compound, one hour reaction; read-out: Enz R140Q

CC1CCCC(NC(=O)Nc2cc(S(=O)(=O)NCC(F)(F)F)ccc2-c2ccccc2)C1 (stereo not shown)	100 to 1000 nM
COc1ccccc1NC(=O)Nc1cc(S(=O)(=O)Nc2ccccc2)ccc1-c1ccsc1	100 to 1000 nM
COc1cccc(-c2ccc(S(=O)(=O)Nc3ccccc3)cc2NC(=O)Nc2cccc(C(F)(F)F)c2)c1	1000 to 10000 nM
Cc1ccc(NC(=O)Nc2cc(S(=O)(=O)Nc3ccccc3)ccc2-c2ccsc2)cc1C	1000 to 10000 nM
O=C(Nc1cc(S(=O)(=O)NCC(F)(F)F)ccc1-c1ccccc1)Nc1cnccc1C(F)(F)F	100 to 1000 nM
Cc1ccc(F)c(NC(=O)Nc2cc(S(=O)(=O)Nc3ccccc3)ccc2-c2ccsc2)c1	100 to 1000 nM
CC1CC1NS(=O)(=O)c1ccc(-c2ccsc2)c(NC(=O)Nc2cccc(C(F)(F)F)c2)c1 (stereo not shown)	100 to 1000 nM
O=C(Nc1cc(Cl)ccn1)Nc1cc(S(=O)(=O)NCC(F)(F)F)ccc1-c1ccccc1	100 to 1000 nM

I am curious: what IC50 value has been reported for "O=C(Nc1cc(Cl)ccc1F)Nc1cc(S(=O)(=O)NCC(F)(F)F)ccc1-c1ccccc1" ?
100 to 1000 nM

I am curious: what IC50 value has been reported for "O=C(Nc1ccc(F)c(C(F)(F)F)c1)Nc1cc(S(=O)(=O)NCC2CC2)ccc1C1=CCOCC1" ?
100 to 1000 nM

I am curious: what IC50 value has been reported for "O=C(Nc1ccc(F)cc1)Nc1cc(S(=O)(=O)NCC2CC2)ccc1C1=CCOCC1" ?
1000 to 10000 nM

I am curious: what IC50 value has been reported for "O=C(Nc1cccc(C(F)(F)F)c1)Nc1cc(S(=O)(=O)NCC(F)(F)F)ccc1OCC1CC1" ?
100 to 1000 nM

I am curious: what IC50 value has been reported for "O=C(Nc1cccc(C(F)(F)F)c1)Nc1cc(S(=O)(=O)Nc2ccc(O)cc2)ccc1-c1ccsc1" ?
1000 to 10000 nM

I am curious: what IC50 value has been reported for "O=C(Nc1cccc(C(F)(F)F)c1)Nc1cc(S(=O)(=O)NCC(F)(F)F)cnc1N1CCOCC1" ?
100 to 1000 nM

I am curious: what IC50 value has been reported for "O=C(Nc1cccc(C(F)(F)F)c1)Nc1cc(S(=O)(=O)NC2CC2)cnc1N1CCOCC1" ?
1000 to 10000 nM

I am curious: what IC50 value has been reported for "O=C(Nc1ccc(F)c(Cl)c1)Nc1cc(S(=O)(=O)NC2CC2)ccc1-c1ccccc1" ?
1000 to 10000 nM

###

In this section we review reported IC50 values for a set of molecules.
- assay_system: IDH2 R140Q (Homo sapiens (Human), UniProt P48735, R140Q)
- assay_remarks: IDH2 R140Q enzymatic cofactor depletion assay (diaphorase/resazurin)
- test_parameters: IDH2 R140Q enzyme, one hour preincubation with compound, one hour reaction; read-out: Enz R140Q

Consider the worked cases shown below.
O=C(Nc1cccc(C(F)(F)F)c1)Nc1cc(S(=O)(=O)NCC(F)(F)F)cnc1OCC1CCOC1 (stereo not shown)	100 to 1000 nM
O=C(Nc1ccccc1OC(F)(F)F)Nc1cc(S(=O)(=O)NCC(F)(F)F)ccc1-c1ccccc1	100 to 1000 nM
CC(C)NS(=O)(=O)c1ccc(-c2ccsc2)c(NC(=O)Nc2cccc(C(F)(F)F)c2)c1	100 to 1000 nM

I am curious: what IC50 value has been reported for "O=C(Nc1ccc(F)c(F)c1)Nc1cc(S(=O)(=O)Nc2ccccc2)ccc1-c1ccsc1" ?
1000 to 10000 nM

###

- assay_system: IDH2 R140Q (Homo sapiens (Human), UniProt P48735, R140Q)
- assay_remarks: IDH2 R140Q enzymatic cofactor depletion assay (diaphorase/resazurin)
- test_parameters: IDH2 R140Q enzyme, one hour preincubation with compound, one hour reaction; read-out: Enz R140Q
- Excerpt: The reaction was terminated by the addition of a second enzyme, diaphorase, and a corresponding substrate, resazurin. Diaphorase reduces resazurin to the highly fluorescent resorufin with the concomitant oxidation of NADPH to NADP, both halting the IDH2 reaction by depleting the available cofactor pool and facilitating quantitation of the amount of cofactor remaining after a specific time period through quantitative production of an easily detected fluorophore. […]
pIC50: −log10 of the molar value.
outcome_measure: pIC50

Consider the worked cases shown below.
O=C(Nc1cccc(C(F)(F)F)c1)Nc1cc(S(=O)(=O)NC2CC2)cnc1N1CCCOCC1 [Compound 358]	6.00 to 7.00
O=C(Nc1ccc(F)c(Cl)c1)Nc1cc(S(=O)(=O)Nc2ccccc2)ccc1-c1ccsc1 [Compound 19]	5.00 to 6.00
O=C(Nc1ccc(F)cc1F)Nc1cc(S(=O)(=O)NCC(F)(F)F)ccc1-c1ccccc1 [Compound 68]	6.00 to 7.00

Lab note: need pIC50 with IDH2 R140Q (Homo sapiens (Human), UniProt P48735, R140Q) for entry O=C(Nc1cccc(C(F)(F)F)c1)Nc1cc(S(=O)(=O)Nc2ccccc2O)ccc1-c1ccsc1 [Compound 142] , please look it up.
< 5.00

Lab note: need pIC50 with IDH2 R140Q (Homo sapiens (Human), UniProt P48735, R140Q) for entry O=C(Nc1cc(F)cc(F)c1)Nc1cc(S(=O)(=O)NCC(F)(F)F)ccc1-c1ccccc1 [Compound 89] , please look it up.
6.00 to 7.00

Lab note: need pIC50 with IDH2 R140Q (Homo sapiens (Human), UniProt P48735, R140Q) for entry O=C(Nc1cccc(Cl)c1)Nc1cc(S(=O)(=O)Nc2ccccc2)ccc1-c1ccsc1 [Compound 8] , please look it up.
6.00 to 7.00
